Where do the numbers come from? From paper PMC12301034.

System: HCT116 p53^+/+ cells
Test protocol: SRB cytotoxicity assay on HCT116 p53+/+ cells
Assay type: cell-based, human
Cond: Homo sapiens, HCT-116, 48 h of treatment
Measured metric: IC50 (µM)

>>> number("COc1cccc(C(=O)/C=C/c2cccc(B(O)O)c2)c1")
2.5
>>> number("O=C(/C=C/c1cccc(B(O)O)c1)c1ccccc1")
4.4
>>> number("COc1cccc(C(=O)/C=C/c2ccc(B(O)O)cc2)c1")
3.96
>>> number("COc1cccc(C(=O)/C=C/c2ccccc2)c1")
6.83
>>> number("O=C(/C=C/c1cccc(B(O)O)c1)c1cccc(O)c1")
2.33
